Target: 3CLpro (Severe acute respiratory syndrome coronavirus 2)
Test: SARS-CoV-2 3CLpro protease assay (duplex, SAMDI-MS)
Type: biochemical
Set-up: For the duplex assay, 3CLpro and HRV3C was added
Details: 3CLpro, 30 mins preincubation, class symbols; read-out: SARS-Cov-2 IC50
pIC50: −log10 of the molar value.
Readings of pIC50 for the listed compounds
Result type: pIC50

Compound	Result type	Observed result
O=C1NCC[C@H]1C[C@H](NC(=O)[C@@H]1[C@H]2CCC[C@H]2CN1C(=O)c1cc2c(OC(F)F)cc(Cl)cc2[nH]1)C(=O)CO	pIC50	> 7.70
O=C(NCc1ccccc1)C(=O)C(C[C@@H]1CCNC1=O)NC(=O)[C@@H]1C[C@@H](C(F)(F)F)CN1C(=O)c1cc2ccccc2[nH]1 (stereo partly drawn)	pIC50	5.70 to 6.70
COc1cccc2[nH]c(C(=O)N3C[C@@H]4CCC[C@@H]4[C@H]3C(=O)NC(C[C@@H]3CCNC3=O)C(=O)C(=O)NCc3ccccc3)nc12 (stereo partly drawn)	pIC50	6.70 to 7.70
